- Tested on: Ba/F3 P210-BCR-ABL1 RUNX1-/mut (mouse)
- ASSAY SUMMARY: drug sensitivity score (DSS) (DSS score); higher = more sensitive (stronger growth inhibition); extreme values may be limits of the assay
Quick reference: drug sensitivity score of the listed items.
Please state the value as a number alone, without comment.

Sample answers from the record:
- N#Cc1ccc(C(c2ccc(C#N)cc2)n2cncn2)cc1: 0
- CC(C)c1c(C(=O)Nc2ccccc2)c(-c2ccccc2)c(-c2ccc(F)cc2)n1CC[C@@H](O)C[C@@H](O)CC(=O)O: 0.1
- CS(=O)(=O)N1CCN(Cc2cc3nc(-c4cccc5[nH]ncc45)nc(N4CCOCC4)c3s2)CC1: 7.85

Asked: Given the entry CNC(=O)CN1CCC(Oc2cc3c(Nc4cccc(Cl)c4F)ncnc3cc2OC)CC1 , report its measured drug sensitivity score.
Given back: 0

Asked: Consider the molecule C[C@H]1O[C@@H](O[C@H]2[C@@H](O)C[C@H](O[C@H]3[C@@H](O)C[C@H](O[C@H]4CC[C@@]5(C)[C@H](CC[C@@H]6[C@@H]5C[C@@H](O)[C@]5(C)[C@@H](C7=CC(=O)OC7)CC[C@]65O)C4)O[C@@H]3C)O[C@@H]2C)C[C@H](O)[C@@H]1O and give its measured drug sensitivity score.
Given back: 0.05

Asked: Give its drug sensitivity score value. Item: CC(=O)c1c(C)c2cnc(Nc3ccc(N4CCNCC4)cn3)nc2n(C2CCCC2)c1=O
Given back: 8.85

// provenance: the supplement of paper PMC8024199
